# Test system: Transthyretin (Homo sapiens), P02766 [V50M]
# Run Description: Inhibition of recombinant N-terminal hexa-histidine tagged TTR V30M mutant (unknown origin) expressed in Escherichia coli assessed as acid mediated amyloid-like fibril formation by measuring fluorescence intensity at 1 uM incubated for 4 days at 310K in presence of sodium acetate by thioflavin T based fluorescence spectrophotometric analysis
# Experimental Parameters: time 4.0 day
Activity calls are given as the source filed them. The rule behind the calls is not given here.
Answer with one of the outcomes True (active), False (inactive)

{"Molecule": "Oc1cc(O)cc(/C=C/c2ccc(O)cc2O)c1", "Cat": "True"}
{"Molecule": "O=C(O)c1cc(-c2ccc(F)cc2F)ccc1O", "Cat": "True"}
{"Molecule": "COc1cc(O)cc(/C=C/c2ccc(O)cc2)c1", "Cat": "True"}

[ask] Could you kindly confirm the outcome this assay logged for "COc1cc(/C=C/c2ccc(O)cc2)cc(OC)c1" ?
[reply] True

[ask] Could you kindly confirm the outcome this assay logged for "O=C(O)c1ccc2nc(-c3cc(Cl)cc(Cl)c3)oc2c1" ?
[reply] True
